# target or system: TNIK (Homo sapiens, UniProt Q9UKE5)
# Construct: purchased Promega V4158
# Sequence (Q9UKE5 1-367 limits assumed): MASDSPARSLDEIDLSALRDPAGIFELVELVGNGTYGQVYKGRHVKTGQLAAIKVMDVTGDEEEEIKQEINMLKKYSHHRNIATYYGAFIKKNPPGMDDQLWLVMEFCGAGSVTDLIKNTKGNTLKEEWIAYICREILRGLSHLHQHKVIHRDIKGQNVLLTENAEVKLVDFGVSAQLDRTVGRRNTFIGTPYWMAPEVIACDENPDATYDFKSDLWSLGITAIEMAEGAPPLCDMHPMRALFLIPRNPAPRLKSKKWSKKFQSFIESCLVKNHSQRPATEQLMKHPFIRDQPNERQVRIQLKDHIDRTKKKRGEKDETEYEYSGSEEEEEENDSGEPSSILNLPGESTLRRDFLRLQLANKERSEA
# test protocol: ADP-Glo Kinase Assay, inhibition activity on TNIK
# Format: biochemical
# reported conditions: read-out: TNIK
Where a name gives a salt, the structure may show the parent alone.
readout type: pIC50
Answers are plain numbers, as −log10 of the molar value.

compound: Cc1cccc(Nc2ccc(NC(=O)c3ccc(NCCN4CCCCC4)cc3)c3c2CNC3=O)c1 [Example 450]
readout type: pIC50
number: 6.24

# map each compound to its pIC50
1. CC(=O)Nc1ccc(C(=O)Nc2ccc(-c3ccccc3)c3c2C(=O)NCC3)cc1 [Example 397]
2. Cc1cccc(Nc2ccc(NC(=O)c3ccc(NCCN4CCCCC4)cc3)c3c2CNC3=O)c1C [Example 471]
3. COc1cccc(-c2ccc(NC(=O)c3ccc(NCCN4CCCC4)cc3)c3c2CNC3=O)c1OC [Example 304, hydrochloride]

Result ::
1. 5.27
2. 6.21
3. 7.14

---

# target or system: TNIK (Homo sapiens, UniProt Q9UKE5)
# Construct: purchased Promega V4158
# test protocol: ADP-Glo Kinase Assay, inhibition activity on TNIK
# Format: biochemical
# reported conditions: read-out: TNIK
Answer each item with its documented IC50.
Answers are plain numbers, in nM.

structure as smiles: Cc1cccc(Nc2ccc(NC(=O)c3ccc(NCCCN4CCCC4)cc3)c3c2CNC3=O)c1
readout type: IC50
number: 480
--
structure as smiles: O=C(Nc1ccc(-c2cccc3ncoc23)c2c1C(=O)NC2)c1ccc(NCCCN2CCCCC2)cc1
readout type: IC50
number: 42
--
structure as smiles: O=C(Nc1ccc(-c2ccco2)c2c1C(=O)NC2)c1ccc(NCCN2CCOCC2)cc1
readout type: IC50
number: 180
--
structure as smiles: CN1CCN(CCNc2ccc(C(=O)Nc3ccc(Nc4ccccc4)c4c3C(=O)NC4)cc2)CC1
readout type: IC50
number: 120
--
structure as smiles: CC(=O)Nc1ccc(-c2ccccc2)c2c1C(=O)NC2
readout type: IC50
number: 1100

Query :: Which IC50 is listed for COc1cccc(-c2ccc(NC(=O)c3ccc(NCCN4CCN(C)CC4)cc3)c3c2CNC3=O)c1OC ?
Result :: 86

---

Answer each item with its documented IC50.
# target or system: TNIK (Homo sapiens)
# Construct: purchased Promega V4158
# test protocol: ADP-Glo Kinase Assay, inhibition activity on TNIK
# Type: biochemical
# reported conditions: read-out: TNIK
Answers are plain numbers, in nM.

Study these solved cases before continuing.
structure as smiles: Cc1cccc(Nc2ccc(NC(=O)c3ccc(F)cc3)c3c2CNC3=O)c1C
readout type: IC50
value units: nM
number: 1350

structure as smiles: COc1ccc(C(=O)Nc2ccc(-c3ccccc3)c3c2C(=O)NC3)cc1
readout type: IC50
value units: nM
number: 3400

structure as smiles: O=C(Nc1ccc(Br)c2c1C(=O)NC2)c1ccc(NCCN2CCCC2)cc1
readout type: IC50
value units: nM
number: 1760

structure as smiles: O=C(Nc1ccc(Nc2ccccc2)c2c1C(=O)NC2)c1ccc(NCCN2CCCCC2)cc1
readout type: IC50
value units: nM
number: 150

structure as smiles: NCCCNc1ccc(C(=O)Nc2ccc(Nc3ccccc3)c3c2C(=O)NC3)cc1
readout type: IC50
value units: nM
number: 200

structure as smiles: O=C(Nc1ccc(-c2ccccc2)c2c1C(=O)NC2)c1ccc(Cl)cc1
readout type: IC50
value units: nM
number: 1100

# map each compound to its IC50
1. Cc1ccc(NC(=O)Nc2ccc(-c3ccccc3)c3c2C(=O)NC3)cc1
2. Cc1ccc(C(=O)Nc2ccc(-c3ccccc3)c3c2C(=O)NC3)cc1
3. Cc1ccccc1Nc1ccc(NC(=O)c2ccc(NCCN3CCCCC3)cc2)c2c1CNC2=O

Result ::
1. 2100
2. 770
3. 420

Values from patent US9856216B2
